FYI, the data here is from patent US10072001B2.

Molecular target: IKKε (Homo sapiens (Human))
Sequence (Q14164 whole entry): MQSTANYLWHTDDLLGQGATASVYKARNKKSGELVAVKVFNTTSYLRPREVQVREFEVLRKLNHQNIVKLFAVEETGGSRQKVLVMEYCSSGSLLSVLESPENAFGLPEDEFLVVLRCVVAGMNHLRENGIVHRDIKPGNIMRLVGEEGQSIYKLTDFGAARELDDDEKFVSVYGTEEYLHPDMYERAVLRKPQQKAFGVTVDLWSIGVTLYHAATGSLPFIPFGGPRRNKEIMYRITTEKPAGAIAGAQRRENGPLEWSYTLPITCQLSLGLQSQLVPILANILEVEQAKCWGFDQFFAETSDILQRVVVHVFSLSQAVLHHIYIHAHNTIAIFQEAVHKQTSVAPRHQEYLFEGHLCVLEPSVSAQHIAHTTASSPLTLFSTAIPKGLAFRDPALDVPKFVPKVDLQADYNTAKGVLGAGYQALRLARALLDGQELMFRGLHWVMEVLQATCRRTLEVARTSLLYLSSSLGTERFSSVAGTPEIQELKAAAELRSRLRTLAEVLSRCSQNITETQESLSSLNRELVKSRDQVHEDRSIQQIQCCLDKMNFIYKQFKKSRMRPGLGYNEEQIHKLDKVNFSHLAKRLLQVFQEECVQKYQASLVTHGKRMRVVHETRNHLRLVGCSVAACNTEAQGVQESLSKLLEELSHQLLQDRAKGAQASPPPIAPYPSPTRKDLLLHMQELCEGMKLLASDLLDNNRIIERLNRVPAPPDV
Assay: TR-FRET kinase assay, IKKε
Format: biochemical
Details: full length recombinant IKKε 0.3 nM, 2x Km ATP, 1 μM peptide, 240 min at 25° C.; geometric mean of minimum four determinations
// bucketize IC50: b0: < 6 nM; b1: ≥ 6 nM and < 20 nM; b2: ≥ 20 nM

[in] Class (by measured IC50) for CS(=O)(=O)c1ccc(-c2cc3c(-c4ccc(OC5CCOCC5)c(C#N)c4)ccnc3[nH]2)cc1 [Example 42]
[out] b1

[in] Class (by measured IC50) for N#Cc1cc(-c2ncnc3[nH]c(-c4ccc(N5CCN(C6COC6)CC5)cc4)nc23)ccc1OC1CCOCC1 [Example 232]
[out] b1

[in] Class (by measured IC50) for N#Cc1cc(-c2ncnc3[nH]c(-c4ccc(C(=O)N5CCCC5)cc4)cc23)ccc1OC1CCN(C(=O)CO)CC1 [Example 162]
[out] b0

[in] Class (by measured IC50) for N#Cc1cc(-c2ncnc3[nH]c(-c4ccc(OCCN5CCCC5)cc4)cc23)ccc1OC1CCOCC1 [Example 226]
[out] b0

[in] Class (by measured IC50) for N#Cc1cc(-c2ncnc3[nH]c(-c4ccc(N5CCOCC5)c(F)c4)cc23)ccc1OC1CCOCC1 [Example 156]
[out] b1

[in] Class (by measured IC50) for COC(=O)c1ccc(-c2cc3c(-c4ccc(OC5CCN(C(=O)CO)CC5)c(C#N)c4)ncnc3[nH]2)cc1 [Example 159]
[out] b0

[in] Class (by measured IC50) for CC(C)(O)c1ccc(-c2cc3c(-c4cc(C#N)c(OC5CCOCC5)cn4)ccnc3[nH]2)cc1 [Example 170]
[out] b1

[in] Class (by measured IC50) for N#Cc1cc(-c2ncnc3[nH]c(-c4ccc(N5CCOCC5)cc4)nc23)ccc1OC1CCN(C(=O)C(F)F)CC1 [Example 248]
[out] b1

[in] Class (by measured IC50) for N#Cc1cc(-c2ncnc3[nH]c(-c4ccc(N5CCOCC5)cc4)cc23)ccc1OCC1CC1 [Example 102]
[out] b2

[in] Class (by measured IC50) for CC(C)Oc1ccc(-c2ccnc3[nH]c(-c4ccc(N5CCOCC5)cc4)cc23)cc1C#N [Example 71]
[out] b2

[in] Class (by measured IC50) for N#Cc1cc(-c2c(F)cnc3[nH]c(-c4ccc(OCCN5CCCC5)cc4)cc23)ccc1OC1CCOCC1 [Example 174]
[out] b1

[in] Class (by measured IC50) for Cn1cc(-c2cc3c(-c4ccc(OC5CCOCC5)c(C#N)c4)ncnc3[nH]2)cn1 [Example 104]
[out] b1

[in] Class (by measured IC50) for CC(=O)N1CCC(Oc2ccc(-c3ncnc4[nH]c(-c5ccc(N6CCOCC6)cc5)nc34)cc2C#N)CC1 [Example 249]
[out] b1

[in] Class (by measured IC50) for CC(C)(C)OC(=O)n1ccc2cc(-c3cc4c(-c5ccc(OC6CCOCC6)c(C#N)c5)ccnc4[nH]3)ccc21 [Example 44]
[out] b2

[in] Class (by measured IC50) for N#Cc1cc(-c2ncnc3[nH]c(-c4ccc(C5CCN(CC(F)(F)F)CC5)cc4)nc23)ccc1OC1CCN(C(=O)CO)CC1 [Example 257]
[out] b1

[in] Class (by measured IC50) for N#Cc1cc(-c2ccnc3[nH]c(-c4ccc(N5CCOCC5)cc4)cc23)ccc1N1CCCC1 [Example 49]
[out] b2

[in] Class (by measured IC50) for CN1CCN(c2ccc(-c3nc4c(-c5ccc(OC6CCOCC6)c(C#N)c5)ccnc4[nH]3)cc2)CC1 [Example 306]
[out] b0

[in] Class (by measured IC50) for N#Cc1cc(-c2ccnc3[nH]c(-c4ccc(N5CCOCC5)cc4)cc23)ccc1N [Example 28]
[out] b2

[in] Class (by measured IC50) for N#Cc1cc(-c2ccnc3[nH]c(-c4ccc(N5CCN(C6COC6)CC5)cc4)cc23)ccc1OC1CCOCC1 [Example 85]
[out] b0

[in] Class (by measured IC50) for C=C(C)c1ccc(-c2cc3c(-c4ccc(O[C@@H]5CCN(C(=O)CO)C5)c(C#N)c4)ccnc3[nH]2)cc1 [Example 150]
[out] b1

[in] Class (by measured IC50) for CC1CN(c2ccc(-c3nc4c(-c5ccc(OC6CCN(C(=O)CO)CC6)c(C#N)c5)ncnc4[nH]3)cc2)CCN1CCF (centres unmarked) [Example 256]
[out] b0

[in] Class (by measured IC50) for N#Cc1cc(-c2ncnc3[nH]c(-c4ccc(C5CCN(CC(F)(F)F)CC5)cc4)nc23)ccc1OC1CCNCC1 [Example 261]
[out] b2

[in] Class (by measured IC50) for N#Cc1cc(-c2ncnc3[nH]c(-c4ccc(N5CCOCC5)cc4)cc23)ccc1OC1CCS(=O)(=O)CC1 [Example 240]
[out] b2

[in] Class (by measured IC50) for CC(C)(O)c1ccc(-c2cc3c(-c4ccc(O[C@@H]5CCN(C(=O)CO)C5)c(C#N)c4)ccnc3[nH]2)cc1 [Example 149]
[out] b0

[in] Class (by measured IC50) for N#Cc1cc(-c2ccnc3[nH]c(-c4ccc(N5CCOCC5)cc4)cc23)ccc1F [Example 58]
[out] b2

[in] Class (by measured IC50) for N#Cc1cc(-c2ccnc3[nH]c(-c4ccc(N5CCN(C(=O)CO)CC5)cc4)cc23)ccc1OC1CCOCC1 [Example 56]
[out] b1

[in] Class (by measured IC50) for N#Cc1cc(-c2ncnc3[nH]c(-c4ccc(N5CCOCC5)cc4)cc23)ccc1OC1CCN(C(=O)CO)CC1 [Example 220]
[out] b0

[in] Class (by measured IC50) for CS(=O)(=O)c1ccc(-c2ccnc3[nH]c(-c4ccc(N5CCOCC5)cc4)cc23)cc1C#N [Example 192]
[out] b2

[in] Class (by measured IC50) for N#Cc1cc(-c2ncnc3[nH]c(-c4ccc(N5CCOCC5)cc4)cc23)ccc1O[C@@H]1CCNC1 [Example 106]
[out] b1
